- System: Ryegrass, Italian (Italian ryegrass, Lolium multiflorum)
- assay.summary: Test A preemergence, Ryegrass, Italian
- Assay type: in vivo
- settings: Preemergence, 500 g ai/ha; visual injury on 0 to 100 scale (0 no effect, 100 complete control), approximately 10 days
Ryegrass, Italian plant response rating for assorted compounds
Respond numerically, and do not add a unit to the figure.

Here are 3 compounds together with their reported answers.
> print(dat)
                                   compound  measured.value
1  Cc1cc(F)c(C(=O)N2CCC(C#N)CC2)cc1N(S(=O)(=O)C(F)(F)F)S(=O)(=O)C(F)(F)F [Compound 239]              30
2  Cc1cc(F)c(C(=O)N2CC(C)OC(C)C2)cc1NS(=O)(=O)C(F)(F)F (stereo not shown) [Compound 238]              90
3  Cc1cc(C)c(C2=NOC3(CCCCCC3)C2)cc1NS(=O)(=O)C(F)(F)F [Compound 277]             100

From here, focus on the item given below.
### Prompt Entry under review: Cc1cc(Cl)c(NS(=O)(=O)C(F)(F)F)cc1C(=O)N1CCOCC1C (stereo not shown) [Compound 245] . Reported Ryegrass, Italian plant response rating?
### Response 100

This collection of values is drawn from patent US20230278972A1.
